Target: T1, hu-sCD47-6His; extracellular domain of human CD47 antigen with 6His-tag (human)
T1 construct: also called hCD47-his; soluble hCD47
Test: SPR Biacore; head read as x 10^-4
Recorded koff, one value per entry.
Enter your answer as a number in s⁻¹; do not include the unit.

# example entries with known answers
[
  {
    "binder": "h20-VH3-VL4 (candidate 20.14) (antibody, human IgG4 S228P, kappa, V domains shown, hIgG4-S228P/kappa; also called h20-H3-L4) VH: QVQLVQSGAEVKKPGASVKVSCKASGYSFTDYYINWVRQAPGQGLEWMGRIYPGIGNTYYNKKFKGRVTVTRDTSISTAHMELSSLRSDDTAVYYCARGHYGRGMDYWGQGTAVTVSS VL: DIVMTQSPDSLAVSLGERATINCKSSQSLLNSIDQKNYLAWYQQKPGQPPKLLIYFASTKESGVPDRFSGSGSGTDFTLTISSLQAEDVAVYFCQQHYSTPWTFGGGAKVEIKR",
    "koff, s⁻¹": 0.000581
  },
  {
    "binder": "h20-VH3-VL3 (candidate 20.13) (antibody, human IgG4 S228P, kappa, V domains shown, hIgG4-S228P/kappa; also called h20-H3-L3) VH: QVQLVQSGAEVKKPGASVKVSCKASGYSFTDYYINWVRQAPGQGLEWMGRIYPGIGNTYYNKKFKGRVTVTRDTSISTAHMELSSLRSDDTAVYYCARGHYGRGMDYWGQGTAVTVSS VL: EIVLTQSPDSLAVSLGERATINCKSSQSLLNSIDQKNYLAWYQQKAGQSPKLLIYFASTKESGVPDRFSGSGSGTDFTLTIDSLQAEDVAVYYCQQHYSTPWTFGGGTKVEIKR",
    "koff, s⁻¹": 0.000594
  },
  {
    "binder": "h20-VH4-VL3 (candidate 20.18) (antibody, human IgG4 S228P, kappa, V domains shown, hIgG4-S228P/kappa; also called h20-H4-L3) VH: QVQLVQSGAEVKKPGSSVKVSCKASGYSFTDYYINWVRQAPGQGLEWMGRIYPGIGNTYYNKKFKGRVTITADKSTSTAYMELSSLRSEDTAVYYCARGHYGRGMDYWGQGTTVTVSS VL: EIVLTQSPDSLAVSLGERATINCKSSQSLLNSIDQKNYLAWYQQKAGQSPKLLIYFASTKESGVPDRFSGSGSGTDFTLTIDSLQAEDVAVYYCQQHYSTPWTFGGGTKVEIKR",
    "koff, s⁻¹": 0.000733
  }
]

Find the recorded koff belonging to h20-VH1-VL3 (candidate 20.3) (antibody, human IgG4 S228P, kappa, V domains shown, hIgG4-S228P/kappa; also called h20-H1-L3) VH: QVQLLESGAVLARPGTSVKISCKASGYSFTDYYINWVKQRPGQGLEWIGRIYPGIGNTYYNKKFKGRAKLTAATSASIAYLEFSSLTNEDSAVYYCARGHYGRGMDYWGQGTLVTVSS VL: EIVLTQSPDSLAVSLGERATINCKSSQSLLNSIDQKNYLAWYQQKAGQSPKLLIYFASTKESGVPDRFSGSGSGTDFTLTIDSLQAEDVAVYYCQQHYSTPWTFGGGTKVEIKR and report it.
0.000839

Look up koff for this binder: h20-VH1-VL5 (candidate 20.5) (antibody, human IgG4 S228P, kappa, V domains shown, hIgG4-S228P/kappa; also called h20-H1-L5) VH: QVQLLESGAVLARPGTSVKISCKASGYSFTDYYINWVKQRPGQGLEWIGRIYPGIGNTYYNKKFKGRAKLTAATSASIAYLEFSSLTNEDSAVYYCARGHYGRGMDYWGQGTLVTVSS VL: DIVMTQSPDSLAVSLGERATINCKSSQSLLNSIDQKNYLAWYQQKPGQPPKLLIYFASTKESGVPDRFSGSGSGTDFTLTISGLQAEDVAVYFCQQHYSTPWTFGGGTKVEIRR
0.000595
